- target under test: Human immunodeficiency virus type 1 protease (Human immunodeficiency virus 1)
- assay explanation: Tested for inhibition of HIV protease
property label: IC90 (nM)
Give the quantity in nM, number only.

Looking up CCC[C@]1(CCc2ccccc2)CC(=O)C([C@@H](CC)c2cccc(NS(=O)(=O)c3cn(C)cn3)c2)=C(O)O1 (stereo in doubt; Vb) , I see its IC90 listed as 560

For reference, reported IC90 for CCCC1(CCc2ccccc2)CC(=O)C(C(CC)c2cccc(NS(=O)(=O)c3cccc4cccnc34)c2)=C(O)O1 (centres undefined) stands at 3000

Field IC90 (entry CCC[C@]1(CCc2ccccc2)CC(=O)C([C@@H](CC)c2cccc(NS(=O)(=O)c3cn(C)cn3)c2)=C(O)O1 (stereo in doubt; Va) ) reads 1000
